biological target: α-glucosidase (E.C.3.2.1.20) (Saccharomyces cerevisiae); assay: α-glucosidase inhibition assay; type: biochemical; details: read-out: Percent inhibition (0.5 mM)
experimental-readout: inhibition at 500 µM (%)

smiles-str | units | value-measured
O=C(NN=C1C(=O)N(CCOc2ccc(Cl)cc2)c2ccccc21)c1cccnc1 | % | 92.9
O=C(NN=C1C(=O)N(CCOc2ccccc2)c2ccccc21)c1ccncc1 | % | 94.1
O=C(NN=C1C(=O)N(CCOc2ccc(Cl)cc2)c2ccccc21)c1ccc(Br)cc1 | % | 94.5
O=C(NN=C1C(=O)N(CCOc2ccc(Cl)cc2)c2ccccc21)c1ccncc1 | % | 94.7
O=C(NN=C1C(=O)N(CCOc2ccccc2)c2ccccc21)c1ccc(Br)cc1 | % | 90.6

A: O=C(NN=C1C(=O)N(CCOc2ccc(F)cc2)c2ccccc21)c1ccc(Br)cc1
B: O=C(NN=C1C(=O)N(CCOc2ccc(F)cc2)c2ccccc21)c1ccncc1
Lookup: Returns the identifier with the smallest measured inhibition at 500 µM among A and B . Identify your pick by its label.
Found: B
(B: 39.3%, A: 93.1%)

* * *

molecular target: α-glucosidase (E.C.3.2.1.20) (Saccharomyces cerevisiae, UniProt P53341); assay: α-glucosidase inhibition assay; format: biochemical; settings: read-out: Percent inhibition (0.5 mM)
Sequence (P53341 whole entry): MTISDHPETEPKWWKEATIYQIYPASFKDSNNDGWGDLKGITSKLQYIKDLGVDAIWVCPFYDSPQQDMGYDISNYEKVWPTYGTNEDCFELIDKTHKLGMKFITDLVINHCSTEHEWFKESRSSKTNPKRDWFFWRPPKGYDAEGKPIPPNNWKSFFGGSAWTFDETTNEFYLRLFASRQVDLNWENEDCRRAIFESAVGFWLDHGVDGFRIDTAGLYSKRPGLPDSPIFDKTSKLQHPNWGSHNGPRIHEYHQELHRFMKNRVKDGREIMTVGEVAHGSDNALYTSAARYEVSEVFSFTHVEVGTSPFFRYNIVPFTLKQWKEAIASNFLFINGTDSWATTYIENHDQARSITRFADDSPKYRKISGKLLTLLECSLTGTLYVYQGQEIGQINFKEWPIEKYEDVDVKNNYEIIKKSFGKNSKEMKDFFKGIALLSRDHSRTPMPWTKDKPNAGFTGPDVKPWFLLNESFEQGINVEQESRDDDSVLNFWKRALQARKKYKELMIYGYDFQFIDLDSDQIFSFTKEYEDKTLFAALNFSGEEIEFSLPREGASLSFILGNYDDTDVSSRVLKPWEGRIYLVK
experimental-readout: inhibition at 500 µM (%)

smiles-str | inhibition at 500 µM, %
O=C(NN=C1C(=O)N(CCOc2ccc(Br)cc2)c2ccccc21)c1ccc(Br)cc1 | 94.9

a: O=C(NN=C1C(=O)N(CCOc2ccc(Br)cc2)c2ccccc21)c1ccncc1
b: O=C(NN=C1C(=O)N(CCOc2ccc(F)cc2)c2ccccc21)c1cccnc1
Lookup: Which gives the smaller inhibition at 500 µM number: a or b ? Write down the label of the entry you select.
Found: b

// data source = paper PMC12056728
